- Tested target: human neutrophil elastase (Homo sapiens (Human), UniProt P08246)
- Sequence (P08246 30-267): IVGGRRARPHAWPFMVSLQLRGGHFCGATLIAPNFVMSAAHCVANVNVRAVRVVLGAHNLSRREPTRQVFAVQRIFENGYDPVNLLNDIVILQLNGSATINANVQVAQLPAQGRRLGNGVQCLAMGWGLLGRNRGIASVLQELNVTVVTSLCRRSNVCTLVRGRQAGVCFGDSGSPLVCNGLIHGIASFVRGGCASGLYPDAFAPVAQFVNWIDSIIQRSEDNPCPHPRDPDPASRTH
- Protocol: Inhibition of human neutrophil elastase activity (MeO-Suc-Ala-Ala-Pro-Val-p-nitroanilide, OD405)
- Stated conditions: mean ± SEM (n = 3), 30° C., 30 minutes
Endpoint name: pIC50
Remember the convention: pIC50 equals -log10 of concentration in molar.

Determine from records and report pIC50 for "C/C(=N\OCCCO)c1ccccc1NS(=O)(=O)c1ccc(OC(=O)C(C)(C)C)cc1"
3.80
